- Measured on: BTK (Homo sapiens (Human), UniProt Q06187)
- Sequence (Q06187 whole entry): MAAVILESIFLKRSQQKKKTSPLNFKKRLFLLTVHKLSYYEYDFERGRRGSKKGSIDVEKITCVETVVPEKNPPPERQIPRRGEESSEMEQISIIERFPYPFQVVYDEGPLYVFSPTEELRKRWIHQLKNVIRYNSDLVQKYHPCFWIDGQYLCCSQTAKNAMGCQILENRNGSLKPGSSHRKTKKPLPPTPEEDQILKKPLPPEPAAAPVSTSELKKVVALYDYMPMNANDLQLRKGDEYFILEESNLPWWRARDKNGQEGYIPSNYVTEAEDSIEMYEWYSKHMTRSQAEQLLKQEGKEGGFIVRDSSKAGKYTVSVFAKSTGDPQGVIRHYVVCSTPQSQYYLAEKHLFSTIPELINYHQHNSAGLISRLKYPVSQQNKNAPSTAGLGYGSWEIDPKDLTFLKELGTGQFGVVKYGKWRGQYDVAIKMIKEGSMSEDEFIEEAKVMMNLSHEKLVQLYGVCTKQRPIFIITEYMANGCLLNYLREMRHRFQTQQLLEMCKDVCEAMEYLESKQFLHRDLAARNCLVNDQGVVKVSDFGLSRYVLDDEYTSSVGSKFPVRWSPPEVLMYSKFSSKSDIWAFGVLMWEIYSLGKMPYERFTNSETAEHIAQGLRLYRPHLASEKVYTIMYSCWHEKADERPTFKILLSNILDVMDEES
- Assay info: Omnia assay for potency assessment against BTK
- Assay type: biochemical
- Condition context: [BTK]=5 nm; read-out: BTK Inhibition
pIC50: −log10 of the molar value.
Please provide measured pIC50 for the entries that follow.

Below: 2 molecules and their reported pIC50.
C=CC(=O)Nc1cccc(Nc2nc(Nc3ccc(O[C@@H](C)CO)c(F)c3)ncc2F)c1
> 8.00
C=CC(=O)Nc1cccc(Nc2ncc(F)c(Nc3ccc(OCCOC)cc3)n2)c1
> 8.00

Now, please, on to the next molecule.
Any idea what pIC50 came out for C=CC(=O)Nc1cccc(Nc2nc(Nc3ccc(O[C@H](C)COC(=O)[C@@H](N)C(C)C)c(F)c3)ncc2F)c1 on BTK (Homo sapiens (Human), UniProt Q06187)?
> 8.00

Source: patent US10596172B2
